Target: Gal(b1-4)GlcNAc(b1-3)Gal(b1-4)GlcNAc(b1-3)Gal(b1-4)GlcNAc(b1-2)[Gal(b1-4)GlcNAc(b1-3)Gal(b1-4)GlcNAc(b1-3)Gal(b1-4)GlcNAc(b1-6)]Man(a1-6)[Gal(b1-4)GlcNAc(b1-3)Gal(b1-4)GlcNAc(b1-3)Gal(b1-4)GlcNAc(b1-2)Man(a1-3)]Man(b1-4)GlcNAc(b1-4)[Fuc(a1-6)]GlcNAc
Assay: glycan array binding signal (z-score within array); higher = stronger binding
Settings: glycan notation: IUPAC condensed, linker removed
The full list was thinned out, with the strongest signals kept by preference.
glycan array binding signal (z-score) vs 3: at or above is Yes, below is No.

Task: Would you say ECA (Erythrina cristagalli), P83410 (protein) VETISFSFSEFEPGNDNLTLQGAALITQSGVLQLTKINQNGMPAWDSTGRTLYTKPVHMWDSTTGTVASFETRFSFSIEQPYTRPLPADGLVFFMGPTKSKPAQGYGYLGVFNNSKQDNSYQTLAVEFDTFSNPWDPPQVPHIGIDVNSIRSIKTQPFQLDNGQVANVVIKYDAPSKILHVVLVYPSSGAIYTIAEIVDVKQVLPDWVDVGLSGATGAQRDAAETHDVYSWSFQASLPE shows glycan array binding signal (z-score) at minimum 3?
Output: No

Task: API: above_or_equal(metric=glycan array binding signal (z-score), cutoff=3) for item MpAFP NterminalRI GFP (Marinomonas primoryensis) (protein) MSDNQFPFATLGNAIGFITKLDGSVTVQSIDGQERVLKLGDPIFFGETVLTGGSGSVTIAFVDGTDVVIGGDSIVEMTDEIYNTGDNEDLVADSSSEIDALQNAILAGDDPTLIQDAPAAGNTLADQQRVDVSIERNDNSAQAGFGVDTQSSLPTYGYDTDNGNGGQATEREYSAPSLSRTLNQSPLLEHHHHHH
Output: No

Task: Determine whether measured glycan array binding signal (z-score) meets or exceeds 3 for ECL (Erythrina cristagalli), Q6YD91 (protein) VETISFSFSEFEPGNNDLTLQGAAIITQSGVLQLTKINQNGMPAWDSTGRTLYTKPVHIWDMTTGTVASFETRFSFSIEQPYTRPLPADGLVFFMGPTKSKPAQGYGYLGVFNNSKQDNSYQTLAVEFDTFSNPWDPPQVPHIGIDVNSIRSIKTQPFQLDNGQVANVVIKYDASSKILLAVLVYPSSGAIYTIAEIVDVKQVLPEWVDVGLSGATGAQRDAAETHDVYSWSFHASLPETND
Output: Yes

Task: Item Arath Fbox (Arabidopsis thaliana), NP_178341.1 (protein) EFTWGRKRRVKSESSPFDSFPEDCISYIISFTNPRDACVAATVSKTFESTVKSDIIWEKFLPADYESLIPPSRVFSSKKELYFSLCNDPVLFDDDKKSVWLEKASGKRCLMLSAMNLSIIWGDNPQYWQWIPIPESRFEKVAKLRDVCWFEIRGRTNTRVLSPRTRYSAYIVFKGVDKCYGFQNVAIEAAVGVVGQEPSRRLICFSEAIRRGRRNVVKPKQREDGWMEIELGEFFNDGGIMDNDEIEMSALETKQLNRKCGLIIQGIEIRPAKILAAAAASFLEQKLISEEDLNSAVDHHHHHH with glycan array binding signal (z-score) of 3 or above?
Output: No

Task: Please indicate if the recorded glycan array binding signal (z-score) for Gal 10 (Homo sapiens), Q05315 (protein) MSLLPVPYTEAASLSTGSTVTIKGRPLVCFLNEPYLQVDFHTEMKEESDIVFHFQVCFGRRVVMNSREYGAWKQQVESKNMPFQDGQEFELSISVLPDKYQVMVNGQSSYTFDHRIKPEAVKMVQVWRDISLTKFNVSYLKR meets or exceeds 3.
Output: Yes

Task: Does Gal 7 (Homo sapiens) (protein) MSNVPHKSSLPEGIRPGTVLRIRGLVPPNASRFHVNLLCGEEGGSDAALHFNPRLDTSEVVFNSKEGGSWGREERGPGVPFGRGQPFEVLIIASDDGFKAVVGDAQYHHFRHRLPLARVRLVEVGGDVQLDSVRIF have a reported glycan array binding signal (z-score) of at least 3?
Output: Yes
